Catalogue of inhibition at 3.3 µM readings, one per entry.
System: JY
Assay: Cytotoxicity against human JY cells assessed as inhibition of thymidine uptake at 3.3 uM by scintillation counting
Format: functional

# Compound, Unit label, inhibition at 3.3 µM
measured = [
    ("CC(=O)OC(C)(C)/C=C/C(=O)[C@](C)(O)[C@H]1[C@H](O)C[C@@]2(C)[C@@H]3CC=C4[C@H](C[C@H](O)C(=O)C4(C)C)[C@]3(C)C(=O)C[C@]12C [CUCURBITACIN B]", "%", 71),
    ("CC(=O)OC(C)(C)/C=C/C(=O)[C@](C)(O)[C@H]1[C@H](O)C[C@@]2(C)[C@@H]3CC=C4[C@@H](C=C(O)C(=O)C4(C)C)[C@]3(C)C(=O)C[C@]12C [CUCURBITACIN E]", "%", 68),
    ("CC(C)(O)/C=C/C(=O)[C@](C)(O)[C@H]1[C@H](O)C[C@@]2(C)[C@@H]3CC=C4[C@@H](C[C@H](O)C(=O)C4(C)C)[C@]3(C)C(=O)C[C@]12C [CUCURBITACIN D]", "%", 58),
    ("CC(C)(O)/C=C/C(=O)[C@](C)(O)[C@H]1[C@H](O)C[C@@]2(C)[C@@H]3CC=C4[C@@H](C=C(O)C(=O)C4(C)C)[C@]3(C)C(=O)C[C@]12C [CUCURBITACIN I]", "%", 58),
    ("CC(C)(O)CCC(=O)[C@](C)(O)[C@H]1[C@H](O)C[C@@]2(C)[C@@H]3CC=C4[C@@H](C[C@H](O)C(=O)C4(C)C)[C@]3(C)C(=O)C[C@]12C [CUCURBITACIN R]", "%", 7),
]

----------
Species: Homo sapiens
Assay: Inhibition of actin polymerization in fMLP-stimulated human neutrophils assessed as positive fluorescence signal at 1 uM
Metric: inhibition (%)

# Mol, Metric, Measured
data = [
    ("CC(=O)OC(C)(C)/C=C/C(=O)[C@](C)(O)[C@H]1[C@H](O)C[C@@]2(C)[C@@H]3CC=C4[C@H](C[C@H](O)C(=O)C4(C)C)[C@]3(C)C(=O)C[C@]12C", "inhibition", 19.5),
    ("C=C1[C@@H](C)[C@H]2[C@H](Cc3ccccc3)NC(=O)[C@]23OC(=O)/C=C/[C@H](O)CCC[C@@H](C)C/C=C/[C@H]3[C@@H]1O", "inhibition", 45.5),
    ("CC(C)(O)/C=C/C(=O)[C@](C)(O)[C@H]1[C@H](O)C[C@@]2(C)[C@@H]3CC=C4[C@@H](C=C(O)C(=O)C4(C)C)[C@]3(C)C(=O)C[C@]12C", "inhibition", 15.3),
    ("CC(C)(O)/C=C/C(=O)[C@](C)(O)[C@H]1[C@H](O)C[C@@]2(C)[C@@H]3CC=C4[C@@H](C[C@H](O)C(=O)C4(C)C)[C@]3(C)C(=O)C[C@]12C", "inhibition", 64.6),
]

----------
Species: Homo sapiens
Experiment: Inhibition of actin polymerization in fMLP-stimulated human neutrophils assessed as positive fluorescence signal at 0.33 uM
Reported inhibition values are given for each entry in this list.
Metric: inhibition (%)

# Molecule, Metric, Unit label, Measured
measured = [
    ("CC(C)(O)CCC(=O)[C@](C)(O)[C@H]1[C@H](O)C[C@@]2(C)[C@@H]3CC=C4[C@@H](C[C@H](O)C(=O)C4(C)C)[C@]3(C)C(=O)C[C@]12C", "inhibition", "%", 79.2),
    ("CC(C)(O)CCC(=O)[C@@](C)(O)C1[C@H](O)C[C@@]2(C)[C@@H]3CC=C4C(C=C(O)C(=O)C4(C)C)[C@]3(C)C(=O)C[C@]12C (stereo partly specified)", "inhibition", "%", 86.2),
    ("CC(C)(O)/C=C/C(=O)[C@](C)(O)[C@H]1[C@H](O)C[C@@]2(C)[C@@H]3CC=C4[C@@H](C[C@H](O)C(=O)C4(C)C)[C@]3(C)C(=O)C[C@]12C", "inhibition", "%", 75.2),
    ("CC(C)(O)/C=C/C(=O)[C@](C)(O)[C@H]1[C@H](O)C[C@@]2(C)[C@@H]3CC=C4[C@@H](C=C(O)C(=O)C4(C)C)[C@]3(C)C(=O)C[C@]12C", "inhibition", "%", 60.5),
    ("CC(=O)OC(C)(C)/C=C/C(=O)[C@](C)(O)[C@H]1[C@H](O)C[C@@]2(C)[C@@H]3CC=C4[C@@H](C=C(O)C(=O)C4(C)C)[C@]3(C)C(=O)C[C@]12C", "inhibition", "%", 21.5),
    ("CC(=O)OC(C)(C)/C=C/C(=O)[C@](C)(O)[C@H]1[C@H](O)C[C@@]2(C)[C@@H]3CC=C4[C@H](C[C@H](O)C(=O)C4(C)C)[C@]3(C)C(=O)C[C@]12C", "inhibition", "%", 29.8),
]
